- Measurement Target: human GlyT1c transporter (Homo sapiens, UniProt P48067)
- Construct: expressed in transfected cells; host or cells: CHO cells (recombinant; line hGlyT1c_5_CHO is named for the uptake assay)
- Protocol Text: Radioligand binding assay using recombinant CHO cell membranes expressing human GlyT1
- Conditions: radioligand binding to human GlyT1c transporter-expressing membranes
Readout Name: Ki

Molecule	Measurement Target	Readout Name	Result
Cc1ccc(CN[C@H]2CN(S(=O)(=O)c3cn(C)cn3)C[C@@H]2c2ccccc2)nc1 [Example 536]	human GlyT1c transporter (Homo sapiens, UniProt P48067)	Ki	≤ 1 µM

Can you give me Ki for all of these, one by one?
1. Cn1cnc(S(=O)(=O)N2C[C@@H](NC(=O)c3cccc(Cl)c3Cl)[C@H](c3ccccc3)C2)c1 (relative stereo) [Example 31]
2. Cn1cnc(S(=O)(=O)N2C[C@@H](NCc3ccc(C(F)(F)F)cc3Cl)[C@H](c3ccc(F)cc3)C2)c1 [Example 321]
3. CCC(C)(C)CN[C@H]1CN(S(=O)(=O)c2cn(C)cn2)C[C@@H]1c1ccccc1 [Example 450]
4. Cn1cnc(S(=O)(=O)N2C[C@@H](C(=O)NCc3ccc(F)c(Cl)c3)[C@H](c3ccc(F)cc3)C2)c1 (relative stereo) [Example 642]

OUT:
["≤ 1 µM", "≤ 1 µM", "≤ 1 µM", "≤ 0.01 µM"]

Batch request: Ki per item, same order as input.
1. Cn1cnc(S(=O)(=O)N2C[C@@H](Nc3cc(F)cc(C(F)(F)F)c3)[C@H](c3ccc(F)cc3)C2)c1 (relative stereo) [Example 168]
2. COCCCNC(=O)[C@H]1CN(S(=O)(=O)c2cn(C)cn2)C[C@@H]1c1ccc(F)cc1 [Example 583]

OUT:
1. ≤ 0.1 µM
2. ≤ 10 µM

###

- Measurement Target: human GlyT1c transporter (Homo sapiens)
- Construct: expressed in transfected cells; host or cells: CHO cells (recombinant; line hGlyT1c_5_CHO is named for the uptake assay)
- Protocol Text: Radioligand binding assay using recombinant CHO cell membranes expressing human GlyT1
- Conditions: radioligand binding, recombinant CHO cell membranes expressing human GlyT1c
Please go through the items and note down their Ki.

Compound	Measurement Target	Ki
Cn1cc(S(=O)(=O)N2C[C@H](Nc3ccc(F)c(Cl)c3)[C@@H](c3ccc(F)cc3)C2)nn1 [Example 842]	human GlyT1c transporter (Homo sapiens)	≤ 10 nM
Cn1cc(S(=O)(=O)N2C[C@@H](Nc3cccc(OCC(F)(F)F)c3)[C@H](c3ccc(F)cc3)C2)nn1 (relative stereo) [Example 836]	human GlyT1c transporter (Homo sapiens)	≤ 10 nM
Cn1cc(S(=O)(=O)N2C[C@@H](NCc3ccc(C(F)(F)F)cc3Cl)[C@H](c3ncccc3F)C2)nn1 (relative stereo) [Example 818]	human GlyT1c transporter (Homo sapiens)	≤ 10 nM
Cn1cc(S(=O)(=O)N2C[C@H](Nc3cccc(C(F)(F)F)c3)[C@@H](c3ccc(F)cc3)C2)nn1 [Example 839]	human GlyT1c transporter (Homo sapiens)	≤ 10 nM
Cn1cnc(S(=O)(=O)N2C[C@@H](Nc3ccc(F)c(Cl)c3)[C@H](C3CCCO3)C2)c1 (relative stereo) [Example 824]	human GlyT1c transporter (Homo sapiens)	≤ 1000 nM

Turning now to a further compound:
For reference, reported Ki for Cn1cnc(S(=O)(=O)N2C[C@@H](Nc3ccc(F)c(Cl)c3)[C@H](C3CCCCO3)C2)c1 (relative stereo) [Example 815] stands at ≤ 100 nM

###

- Measurement Target: human GlyT1c transporter (Homo sapiens)
- Construct: expressed in transfected cells; host or cells: CHO cells (recombinant; line hGlyT1c_5_CHO is named for the uptake assay)
- Sequence (P48067 1-706): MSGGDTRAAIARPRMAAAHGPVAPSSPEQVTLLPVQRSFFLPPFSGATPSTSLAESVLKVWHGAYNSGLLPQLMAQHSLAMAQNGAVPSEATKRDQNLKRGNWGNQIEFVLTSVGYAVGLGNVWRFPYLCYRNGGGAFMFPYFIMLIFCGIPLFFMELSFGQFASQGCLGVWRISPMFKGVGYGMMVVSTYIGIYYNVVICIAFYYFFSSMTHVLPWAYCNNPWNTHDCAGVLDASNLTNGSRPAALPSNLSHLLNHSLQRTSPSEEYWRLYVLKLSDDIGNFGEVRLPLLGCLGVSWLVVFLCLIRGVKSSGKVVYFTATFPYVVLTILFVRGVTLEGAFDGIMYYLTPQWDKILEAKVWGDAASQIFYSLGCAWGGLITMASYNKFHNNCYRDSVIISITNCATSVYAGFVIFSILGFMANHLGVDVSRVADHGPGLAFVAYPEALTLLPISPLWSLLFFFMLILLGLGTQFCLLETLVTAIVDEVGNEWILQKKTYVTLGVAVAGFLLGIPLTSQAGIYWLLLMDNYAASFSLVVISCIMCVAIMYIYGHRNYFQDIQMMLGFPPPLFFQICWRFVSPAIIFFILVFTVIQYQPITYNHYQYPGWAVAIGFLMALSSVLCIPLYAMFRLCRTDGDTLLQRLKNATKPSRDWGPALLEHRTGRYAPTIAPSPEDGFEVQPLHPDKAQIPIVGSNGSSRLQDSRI
- Protocol Text: Radioligand binding assay using recombinant CHO cell membranes expressing human GlyT1
- Conditions: radioligand binding to human GlyT1c transporter-expressing membranes
Readout Name: Ki

Field: example entries. Status: answers known.
Molecule	Ki
CCCCOC(=O)O[C@@H]1CN(S(=O)(=O)c2cn(C)cn2)C[C@H]1c1ccc(F)cc1 [Example 697]	≤ 1 µM
Cn1cnc(S(=O)(=O)N2C[C@@H](NC(=O)c3ccccc3C(F)(F)F)[C@H](c3ccccc3)C2)c1 (relative stereo) [Example 35]	≤ 10 µM
Cn1cnc(S(=O)(=O)N2C[C@@H](CNc3cccc(CN)c3)[C@H](c3ccc(F)cc3)C2)c1 (relative stereo) [Example 365]	≤ 10 µM
Cn1cnc(S(=O)(=O)N2C[C@@H](Nc3ccncc3)[C@H](c3cccc(F)c3)C2)c1 (relative stereo) [Example 191]	≤ 10 µM
Cn1cnc(S(=O)(=O)N2C[C@@H](Nc3cccc(F)c3)[C@H](c3cccc(F)c3)C2)c1 (relative stereo) [Example 186]	≤ 1 µM
Cc1cc(N[C@H]2CN(S(=O)(=O)c3cn(C)cn3)C[C@@H]2c2ccc(F)cc2)ccc1F [Example 747]	≤ 0.01 µM
COCCCNC[C@@H]1CN(S(=O)(=O)c2cn(C)cn2)C[C@H]1c1ccc(F)cc1 (relative stereo) [Example 597]	≤ 10 µM
Cn1cnc(S(=O)(=O)N2C[C@H](NCc3ccc(C(F)(F)F)o3)[C@@H](c3ccc(F)cc3)C2)c1 [Example 391]	≤ 0.1 µM

Please report Ki for every entry that follows.
1. Cc1csc(S(=O)(=O)N2CC(Nc3ccc(F)c(F)c3)C(c3ccccc3)C2)c1 (centres unmarked) [Example 484]
2. COc1ccc(S(=O)(=O)N2C[C@@H](Nc3cccc(C#N)c3)[C@H](c3ccccc3)C2)cc1 (relative stereo) [Example 137]
3. Cn1cnc(S(=O)(=O)N2C[C@@H](Nc3ccc(C#N)cc3F)[C@H](c3ccccc3)C2)c1 (relative stereo) [Example 53]
4. Cn1cnc(S(=O)(=O)N2CC(Cc3cccc(Cl)c3)C(C3CC3)C2)c1 (centres unmarked) [Example 309]

OUT:
["≤ 10 µM", "≤ 10 µM", "≤ 10 µM", "≤ 1 µM"]

List reported Ki for each of these molecules:
1. Cn1cnc(S(=O)(=O)N2C[C@H](NC(=O)Oc3ccccc3)[C@@H](c3ccc(F)cc3)C2)c1 [Example 693]
2. Cn1cc(S(=O)(=O)N2C[C@@H](NC(=O)c3cccc(C(F)(F)F)c3Cl)[C@H](c3ccccc3)C2)c(C(F)(F)F)n1 (relative stereo) [Example 38]

OUT:
≤ 10 µM
≤ 10 µM

###

- Measurement Target: human GlyT1c transporter (Homo sapiens, UniProt P48067)
- Construct: expressed in transfected cells; host or cells: CHO cells (recombinant; line hGlyT1c_5_CHO is named for the uptake assay)
- Protocol Text: Radioligand binding assay using recombinant CHO cell membranes expressing human GlyT1
- Conditions: radioligand binding to human GlyT1c transporter-expressing membranes
pKi: −log10 of the molar value.
Readout Name: pKi

Example results:
Molecule	Readout Name	Result
Cn1cnc(S(=O)(=O)N2C[C@@H](Nc3ccc(C#N)c(F)c3)[C@H](c3ccc(F)cc3)C2)c1 (relative stereo) [Example 342]	pKi	≥ 5.00
O=S(=O)(CC1CCCCO1)N1CC(Nc2ccc(F)c(F)c2)C(c2ccccc2)C1 (stereo not shown) [Example 498]	pKi	≥ 5.00

Would you be so kind as to report pKi for each listed record?
1. COCCCCN[C@H]1CN(S(=O)(=O)c2cn(C)cn2)C[C@@H]1c1ccccc1 [Example 647]
2. Cn1cnc(S(=O)(=O)N2C[C@H](NCc3ccc(C(F)(F)F)cc3Cl)[C@@H](c3ccc(F)cc3)C2)c1 [Example 322]
3. Cn1cnc(S(=O)(=O)N2C[C@H](Nc3cccc4c3CNC4=O)[C@@H](c3ccccc3)C2)c1 [Example 421]
4. CS(=O)(=O)N1C[C@@H](NC(=O)c2cccc(C(F)(F)F)c2Cl)[C@H](c2cc(F)c(F)cc2F)C1 (relative stereo) [Example 4]
5. Cn1cnc(S(=O)(=O)N2C[C@H](c3ccccc3)[C@H](NCc3ccccc3)C2)c1 (relative stereo) [Example 157]

OUT:
["≥ 5.00", "≥ 8.00", "≥ 5.00", "≤ 5.00", "≥ 5.00"]
